B1: TPR 5TU (parent)
chain: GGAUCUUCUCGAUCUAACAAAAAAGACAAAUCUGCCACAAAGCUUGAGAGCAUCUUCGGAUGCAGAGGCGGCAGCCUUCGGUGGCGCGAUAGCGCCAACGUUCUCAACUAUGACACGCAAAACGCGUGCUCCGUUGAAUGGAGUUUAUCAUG

variants of: B1; test: polymerase ribozyme fitness, log enrichment relative to wild type (log ratio); higher = more active; in vitro selection for triplet polymerase activity
Variants at the floor of the assay were thinned out.
Recorded polymerase ribozyme fitness (log ratio) by entry
Please give the numeric answer without any surrounding text.

In the examples that follow, each entry is paired with its recorded polymerase ribozyme fitness (log ratio).
In [3]: df
Out[3]:
                     mutation_code  measured_result
0                  A52C G84U U144G            -2.05
1  A12G G58A G81C G84A G133C U144G            -1.22
2             A30C C35U G88U C116G            -3.99

polymerase ribozyme fitness (log ratio) in this record for A41U U111A : -3.7

get_value(item= C76A A107G C123U A142C , readout=polymerase ribozyme fitness (log ratio)) returns -3.65

Notebook: C27U A60U , polymerase ribozyme fitness (log ratio) read as -1.43

Measured polymerase ribozyme fitness (log ratio) of C51U G143U : -2.3

// recorded polymerase ribozyme fitness (log ratio) for C14G A20U : -2.37

The recorded polymerase ribozyme fitness (log ratio) for A39U C93U is -3.36

Input U33G A41C C43U G50A G152U . Output polymerase ribozyme fitness (log ratio): -4.07

Short answer for U53A G81A C99U : polymerase ribozyme fitness (log ratio) was -2.36

Entry A21U A30G , polymerase ribozyme fitness (log ratio) reported as -3.62

Kindly note the recorded polymerase ribozyme fitness (log ratio) for A22C C57U A60U C69G , which is -1.7

Record summary for C93U G141A : reported polymerase ribozyme fitness (log ratio) = -1.7
